# SYSTEM_UNDER_TEST: SHP2-C SH2
# ASSAY_NAME: SH2 binding enrichment of the phosphorylated peptide, bacterial display (enrichment ratio); higher = better substrate or ligand; peptides without Tyr show the background;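 also: peptide library displayed on the E. coli surface as eCPX fusions, selected cells deep-sequenced, score is each peptide's frequency after selection divided by its frequency in the input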
MEASUREMENT_KIND: SH2 binding enrichment

VRFTEYETQVK [TARDBP_Y155] ... 0.754
DKITQYVEEVR [STX2_Y49_K54R] ... 0.719
KEKLCYVAPDF [ACTA1_Y220_L223P] ... 0.731

---

# SYSTEM_UNDER_TEST: Grb2 SH2 (UniProt P62993)
# Sequence (P62993 whole entry, looked up): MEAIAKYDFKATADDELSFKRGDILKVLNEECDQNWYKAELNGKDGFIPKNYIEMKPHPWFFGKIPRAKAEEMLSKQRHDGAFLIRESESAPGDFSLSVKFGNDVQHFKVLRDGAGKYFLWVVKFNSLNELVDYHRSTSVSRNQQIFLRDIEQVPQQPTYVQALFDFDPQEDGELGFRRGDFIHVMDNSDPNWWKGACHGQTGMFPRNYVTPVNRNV
# ASSAY_NAME: SH2 binding enrichment of the phosphorylated peptide, bacterial display (enrichment ratio); higher = better substrate or ligand; peptides without Tyr show the background
MEASUREMENT_KIND: SH2 binding enrichment

VAMDDYLKNVV [LRRK2_Y707_M712V] ... 0.828
LDVDVYGPSVP [NUBPL_Y109] ... 0.868
PRDSGYSFETI [MAP1B_Y1921_S1917R_YF] ... 1.1
NLRQQYNSPQE [UMPS_Y432_G429R] ... 0.829
FADIAYIYRHG [PAH_Y166_N167I] ... 0.936
HIPFRYPKEFQ [IDS_Y234] ... 1.1
LVRPPYSFLAL [FOXI1_Y126_S129L_YF] ... 0.713
TAALWYIYLHT [ENG_Y612_S615L] ... 0.989
SLNEGYAKDFD [FBP1_Y216_R218K] ... 0.788
FTGVEYSSCDT [EPHA3_Y937] ... 0.832
SKDQIYPMKLK [RANBP17_Y823] ... 0.804
GKGGSYSQAAC [HLA-B_Y344] ... 0.971
TDLAYYLVRKG [ASL_Y376] ... 0.95
AGRSGYDNREI [BCL2_Y9_T7S] ... 0.731
LHAAAYRNALA [UQCRC2_Y182] ... 0.691
PELINYQQHNS [BTK_Y361_H362Q] ... 0.753
SRIWVYNHFRC [BRCA2_Y2621_W2626C_YF] ... 0.869
HIKHNYECLVY [XRCC5_Y416] ... 0.772
PLQNTYNFNVL [SLC4A1_Y553_K551N_YF] ... 0.85
CSPLLYRVIMS [OR8D4_Y132] ... 0.825
